Tested on: BALB/3T3
Test: Antiproliferative activity against mouse BALB/3T3 cells after 72 hrs
Assay type: cell-based
Conditions: BALB/3T3, 72 h
A collection of compounds and their measured IC50
# unit: µM | format: bare number

CC[C@@H](C(=O)[C@@H](C)[C@@H](O)[C@H](C)[C@@H]1O[C@@H]([C@@H](CC)C(=O)N[C@@H](Cc2ccccc2)C(=O)OC)CC[C@@H]1C)[C@H]1O[C@]2(C=C[C@@H](O)[C@]3(CC[C@@](C)([C@H]4CC[C@](O)(CC)[C@H](C)O4)O3)O2)[C@H](C)C[C@@H]1C: 17

Looking up `CC[C@@H](C(=O)[C@@H](C)[C@@H](O)[C@H](C)[C@@H]1O[C@@H]([C@@H](CC)C(=O)N[C@@H](Cc2cnc[nH]2)C(=O)OC)CC[C@@H]1C)[C@H]1O[C@]2(C=C[C@@H](O)[C@]3(CC[C@@](C)([C@H]4CC[C@](O)(CC)[C@H](C)O4)O3)O2)[C@H](C)C[C@@H]1C` , I see its IC50 listed as 37
